Entry source: PubChem BioAssay AID1813

Test: 5' untranslated region of α-synuclein, MLPCN primary screen (AID 1813);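 note: H4 neuroglioblastoma cells stably carrying SNCA 5'UTR luciferase fusion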
Settings: alpha-synuclein 5'UTR reporter, inhibitor activity; active compounds read high; tested at 7.5 µM
Among all 300,000 compounds or so, about 2,500 (0.83%) were called active. The list comes from a sample in which actives are over-represented; it also holds close analogues and randomly drawn compounds.
Parameter threshold = 20%. Response is met when inhibition meets or exceeds it, else not met.

O=C(COC(=O)Cn1[nH]c(=O)c2ccccc2c1=O)Nc1c(Cl)cccc1C(F)(F)F
not met

Qu. Item Cc1ccc(Cl)cc1NC(=O)c1ccccn1 with inhibition of 20% or above?
Ans. not met

Qu. Item CN1CCCC(OC(=O)COc2ccc(Br)cc2)C1 (stereo not given) with inhibition of 20% or above?
Ans. not met

Qu. Item CSCCC(NS(=O)(=O)c1ccc2c(c1)oc(=O)n2C)C(=O)NC1CCCc2ccccc21 (stereo not given) with inhibition of 20% or above?
Ans. not met

Qu. Item CC(=NCc1ccco1)c1c(C(F)(F)F)[nH]n(-c2nc3ccccc3s2)c1=O with inhibition of 20% or above?
Ans. not met

Qu. Item CC(=O)Nc1ccc(S(=O)(=O)NC2Cc3ccccc3C2)cc1 with inhibition of 20% or above?
Ans. not met

Qu. Item Oc1ccc(N=Nc2nccs2)c(O)c1 with inhibition of 20% or above?
Ans. met
